Origin of measurements: patent US9522890B2

- system-tested: human recombinant prostanoid EP3 receptor (Homo sapiens, UniProt P43115)
- Construct: expressed in transfected cells; co-transfected with chimeric Gqi-HA
- Sequence (P43115 1-390): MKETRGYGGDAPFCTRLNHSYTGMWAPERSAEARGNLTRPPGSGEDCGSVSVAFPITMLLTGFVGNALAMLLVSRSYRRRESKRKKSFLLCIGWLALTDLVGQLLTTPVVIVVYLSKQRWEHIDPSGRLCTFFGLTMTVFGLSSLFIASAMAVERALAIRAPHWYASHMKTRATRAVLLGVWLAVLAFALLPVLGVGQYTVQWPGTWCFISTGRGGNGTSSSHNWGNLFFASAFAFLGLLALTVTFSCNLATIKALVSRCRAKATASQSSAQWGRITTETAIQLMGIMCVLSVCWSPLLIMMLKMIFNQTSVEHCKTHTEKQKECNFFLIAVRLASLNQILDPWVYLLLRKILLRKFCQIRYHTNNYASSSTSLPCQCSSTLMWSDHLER
- protocol-description: FLIPR Ca2+ signaling PG antagonist assay, EP3 receptor stable cell line
- Type: cell-based
- condition-summary: HEK-293 EBNA cells with chimeric Gqi, standard agonist PGE2
compounds and their reported Kb

molecular-string: Cc1cc(C(=O)O)nn1Cc1cc(C(F)(F)F)ccc1OCC1CCCC1
Kb: ≥ 10 µM

molecular-string: Cc1cc(C(=O)O)nn1Cc1cc(Cl)ccc1OCC1CCCC1
Kb: ≥ 10 µM

molecular-string: Cc1cc(C(=O)O)nn1Cc1cc(Br)ccc1OCC1CCCC1
Kb: ≥ 10 µM

molecular-string: CCC(C)(CC)COc1ccc(Br)cc1Cn1nc(C(=O)O)cc1C
Kb: ≥ 10 µM

Next, consider the following compound.
Enquiry: Give the measured Kb of CCC(CC)COc1ccc(Br)cc1Cn1nc(C(=O)O)cc1C .
Return: ≥ 10 µM

----------
- system-tested: human recombinant prostanoid DP1 receptor (Homo sapiens, UniProt Q13258)
- Construct: expressed in transfected cells; co-transfected with chimeric Gqs-HA
- Sequence (Q13258 whole entry): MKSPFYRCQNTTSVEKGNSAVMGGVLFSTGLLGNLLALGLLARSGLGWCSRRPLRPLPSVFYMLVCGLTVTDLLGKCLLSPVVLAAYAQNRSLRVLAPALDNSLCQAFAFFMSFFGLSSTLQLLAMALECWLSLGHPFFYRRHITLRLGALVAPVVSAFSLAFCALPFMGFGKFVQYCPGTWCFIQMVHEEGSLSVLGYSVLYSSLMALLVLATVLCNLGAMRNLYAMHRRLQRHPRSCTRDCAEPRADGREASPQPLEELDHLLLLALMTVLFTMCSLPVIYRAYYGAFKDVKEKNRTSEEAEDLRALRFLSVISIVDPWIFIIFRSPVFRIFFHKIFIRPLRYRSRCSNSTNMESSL
- protocol-description: FLIPR Ca2+ signaling PG antagonist assay, DP1 receptor stable cell line
- Format: cell-based
- condition-summary: HEK-293 EBNA cells with chimeric Gqs, standard agonist BW 245C; read-out: DP (antagonist Kb)
readout-name: Kb (nM)
Dear colleague, please return just the value in nM, with no unit written.

compound: COc1ccc(COc2ccc(Cl)cc2Cn2nc(C(=O)NS(=O)(=O)c3ccccc3)cc2C)cc1 [Example 4]
Kb / nM: 800

Enquiry: Give the measured Kb of Cc1cc(C(=O)NS(=O)(=O)c2ccccc2)nn1Cc1cc(Cl)ccc1OCc1ccc(Cl)cc1 [Example 5] .
Return: 2600

Enquiry: Give the measured Kb of Cc1cc(C(=O)O)nn1Cc1cc(Cl)ccc1OCC1CCCC1 [Example 1] .
Return: 800
